B1: library; numbered along this chain (parent)
chain: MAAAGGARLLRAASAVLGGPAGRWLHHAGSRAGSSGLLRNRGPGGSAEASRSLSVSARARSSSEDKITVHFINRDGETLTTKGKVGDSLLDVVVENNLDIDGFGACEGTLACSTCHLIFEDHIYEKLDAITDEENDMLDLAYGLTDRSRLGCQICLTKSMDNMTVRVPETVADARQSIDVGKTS

- Variants of: B1
- Experiment notes: scaled log2 fold change in cell abundance, elesclomol vs control (0 = silent mean, 1 = nonsense mean) (scaled log2 ratio); higher = higher viability under elesclomol (loss of FDX1 cuproptosis function);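 note: variant abundance is its share of total variant reads in each endpoint sample, from next-generation sequencing of the integrated ORF PCR-amplified out of genomic DNA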
- Stated conditions: with ABC1 FDX1 KO; elesclomol 5 nM; glucose 10 mM; 14 days
Measured quantity: scaled log2 fold change
The answer should be written as a number, with no unit following it.

Worked examples follow.
L98H ... 0.186
D65A ... -0.0535
N97I ... 0.125
N162R ... 0.34
D128L ... 0.397

Now for a further variant.
In one line, give reported scaled log2 fold change of the entry I123A .
-0.0959
